Reported efflux ratio at 120 min, 5 μM values for the following compounds.
- Test system: MDR1
- Method summary: MDCK-MDR1 permeability assay (BBB penetration potential)
- Type: in vitro ADME
- Test context: dog, MDCK-MDR1, pH 7.4, MDCK-MDR1: Efflux

Compound: Oc1cc2nccnc2cc1-c1ccc(O[C@H]2C[C@@H]3CCC[C@@H](N3)[C@H]2F)nn1 (single isomer, unassigned) [104-ENT2]
efflux ratio at 120 min, 5 μM: 5

Compound: Cc1nnc(-c2ccc(-c3ccc(O[C@@H]4C[C@H]5CCC[C@H](N5)[C@@H]4F)nn3)c(O)c2)s1 (single isomer, unassigned) [95-ENT1]
efflux ratio at 120 min, 5 μM: 10

Compound: C[C@@]12CC[C@@](C)(N1)[C@@H](F)[C@@H](Oc1ccc(-c3ccc(C#N)cc3O)nn1)C2 (single isomer, unassigned) [152-ENT2]
efflux ratio at 120 min, 5 μM: 5

Compound: Cc1nc(-c2ccc(-c3ccc(O[C@@H]4C[C@H]5CCC[C@H](N5)[C@@H]4F)nn3)c(O)c2)co1 (single isomer, unassigned) [92-ENT1]
efflux ratio at 120 min, 5 μM: 5

====

- Test system: MDR1
- Method summary: MDCK-MDR1 permeability assay (BBB penetration potential)
- Assay type: in vitro ADME
- Test context: dog, MDCK-MDR1, pH 7.4, MDCK-MDR1: Papp A-B
- Protocol: Each determination is performed in duplicate. […] Analytical conditions are outlined below.
Property: Papp A→B at 120 min, 5 μM (×10⁻⁶ cm/s)

Compound: Cn1ccc2cc(-c3ccc(O[C@H]4C[C@]5(C)CC[C@@](C)(N5)[C@H]4F)nn3)c(O)cc2c1=O (single isomer, unassigned)
Subject of test: MDR1
Unit: ×10⁻⁶ cm/s
Recorded number: 6.39

Compound: Cn1cc(-c2ccc(-c3ccc(O[C@@H]4C[C@H]5CCC[C@H](N5)[C@@H]4F)nn3)c(O)c2)oc1=O (single isomer, unassigned)
Subject of test: MDR1
Unit: ×10⁻⁶ cm/s
Recorded number: 3.67

Compound: Cc1ccc(-c2ccc(-c3ccc(O[C@@H]4C[C@H]5CCC[C@H](N5)[C@@H]4F)nn3)c(O)c2)o1 (single isomer, unassigned)
Subject of test: MDR1
Unit: ×10⁻⁶ cm/s
Recorded number: 2.07

Compound: CNC(=O)c1ccc2cc(-c3ccc(O[C@H]4C[C@@H]5CCC[C@@H](N5)[C@H]4F)nn3)c(O)cc2n1 (single isomer, unassigned)
Subject of test: MDR1
Unit: ×10⁻⁶ cm/s
Recorded number: 2.27

Compound: Cc1ccc(-c2ccc(-c3ccc(O[C@@H]4C[C@H]5CCC[C@H](N5)[C@@H]4F)nn3)c(O)c2)cn1 (single isomer, unassigned)
Subject of test: MDR1
Unit: ×10⁻⁶ cm/s
Recorded number: 4.42
